# assayed target: Adenosine receptor A3 (Homo sapiens, UniProt P0DMS8)
# Sequence (P0DMS8 whole entry): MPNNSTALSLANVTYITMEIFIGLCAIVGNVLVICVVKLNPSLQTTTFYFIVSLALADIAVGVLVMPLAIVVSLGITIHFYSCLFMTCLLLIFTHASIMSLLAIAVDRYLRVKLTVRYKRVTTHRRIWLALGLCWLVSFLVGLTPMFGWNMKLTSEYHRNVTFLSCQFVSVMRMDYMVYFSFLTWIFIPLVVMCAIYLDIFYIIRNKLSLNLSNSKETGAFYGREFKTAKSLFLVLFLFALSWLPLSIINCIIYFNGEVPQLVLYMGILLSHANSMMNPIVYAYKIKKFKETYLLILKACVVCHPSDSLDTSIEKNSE
Listing: Ki of selected compounds

# compound, assayed target, measured result
measured = [
    ("CCn1c(Br)nc2c(N)ncnc21", "Adenosine receptor A3 (Homo sapiens, UniProt P0DMS8)", "28 µM"),
    ("Nc1ncnc2c1nc(Br)n2CC(O)CO (stereo not drawn)", "Adenosine receptor A3 (Homo sapiens, UniProt P0DMS8)", "≥ 100 µM"),
    ("Nc1ncnc2c1nc(Br)n2C1CCCCC1", "Adenosine receptor A3 (Homo sapiens, UniProt P0DMS8)", "11 µM"),
    ("CC(C)n1cnc2ncnc(N)c21", "Adenosine receptor A3 (Homo sapiens, UniProt P0DMS8)", "> 100 µM"),
]

Problem: Which Ki value is on record for Nc1ncnc2c1ncn2CCc1ccccc1 ?
Solution: > 100 µM
